Could you please report measured neutralization EC90 for the items listed next?
Measurement target: T1, BKV serotype I infectious virus (VP1) (BK virus serotype I, UniProt P03088 1-362)
T1 sequence (looked up): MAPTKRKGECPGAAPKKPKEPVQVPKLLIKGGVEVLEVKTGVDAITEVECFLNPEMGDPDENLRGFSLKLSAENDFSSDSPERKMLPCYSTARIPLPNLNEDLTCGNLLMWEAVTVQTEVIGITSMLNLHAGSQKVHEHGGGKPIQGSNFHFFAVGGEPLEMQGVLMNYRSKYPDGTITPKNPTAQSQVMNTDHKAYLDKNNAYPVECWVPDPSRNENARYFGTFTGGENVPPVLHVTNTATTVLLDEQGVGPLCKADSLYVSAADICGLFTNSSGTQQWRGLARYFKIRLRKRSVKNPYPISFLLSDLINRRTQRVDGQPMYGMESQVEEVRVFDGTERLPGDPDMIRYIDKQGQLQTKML
Measurement notes: cell-based or functional assay
Answer in µg/mL, number only, no unit symbol.

Input: Field request: neutralization EC90 | item: P8D11B (antibody, V domains shown) VH: QVQLVESGGTLVQPGGSLRLSCAASGFTFKNYWMTWVRQAPGKGLEWVANIKKDGSEKYYVDSVRGRFTISRDNAKNSLFLQMNSLRPEDTAVYFCATVRSGRYFALDDWGQGTLVTVSS VL: QSVLTQPPSVSVAPGKTARITCGGDNIGSRPVHWYQQKPGQAPILVVYDDSNRPSGIPERFSGSNSGNTATLTISRVEAGDEADYYCQVWSSSTDHPFGGGTKVTVLG
Output: 0.3

Input: Field request: neutralization EC90 | item: P165E2 (antibody, human IgG1, lambda, V domains shown) VH: QVQLQESGPGLVKPSETLSLTCTVSGGSISRDYWTWVRQPPGEGLEWIGNIYYSGSTNYNPSLKSRVTISVAASKKQFSLKLTSVTAADTAVYYCARVPGCSSTSCIDGWFDPWGQGILVTVSS VL: QSVLTQPPSLSAAPGQRVTISCSGSSSNIGNTYVSWYQQLPGTAPKLLIYDNNKRPSGIPGRFSGSKSGTSATLGITGLQTGDEAAYYCGTWDSSLSAWVFGGGTRLTVLG
Output: 0.37

Input: Field request: neutralization EC90 | item: P7G11 (antibody, human IgG1, lambda, V domains shown) VH: QVQLQESGPGLAKPSQTLSLTCSVSGGSISSGGYSWSWIRQPPGKGLEYIGYIYYRGTTYYNPSLKSRITMSVDTSNNQISLKLTSVTAADTAVYYCARALTHLVGVGWFDPWGQGTMVTVSS VL: QSVLTQPPSVSAAPGQKVTISCSGGSSNLGSNYVSWYQQLPGTAPKLLIYDNNKRPSGIPDRFSGSKSGTSATLGITGLQTGDEADYYCGTWDGSLSAWVFGGGTKVTVLG
Output: 0.37
